Consider the following compounds; for each one, report its IC50.
Test system: HCV replicon 1AY93H
Experiment: Cell-based HCV Replicon Assay A, replicon 1AY93H
Conditions: read-out: 1A Y93H IC50, replicon 1AY93H
Answer in pM, number only, no unit symbol.

Data request: Name the reported IC50 value associated with the compound CCc1ncc(C2Oc3cc(-c4cnc([C@@H]5CCCN5C(=O)[C@@H](NC(=O)OC)C(C)C)[nH]4)cc(F)c3-c3cc4cc(-c5cnc([C@@H]6C[C@H]7C[C@H]7N6C(=O)[C@@H](CC(=O)OC)C(C)C)[nH]5)ccc4n32)s1 (single isomer, unassigned) [Compound 83]
Data returned: 6.7

Data request: Would you mind doing CCCc1ncc(C2Oc3cc(-c4cnc([C@@H]5CCCN5C(=O)[C@@H](NC(=O)OC)C(C)C)[nH]4)cc(F)c3-c3cc4cc(-c5cnc([C@@H]6C[C@H]7C[C@H]7N6C(=O)C(NC(=O)OC)C6CCOC(C)(C)C6)[nH]5)ccc4n32)s1 (single isomer, unassigned) [Compound 105] as well?
Data returned: 2.9

Data request: And then COC(=O)N[C@H](C(=O)N1CCC[C@H]1c1ncc(-c2cc(F)c3c(c2)OC(c2cnc(C4CC4)s2)n2c-3cc3cc(-c4cnc([C@@H]5C[C@H]6C[C@H]6N5C(=O)[C@@H](NC(=O)OC)C(C)C)[nH]4)ccc32)[nH]1)C(C)C (single isomer, unassigned) [Compound 301] , what is it?
Data returned: 220

Data request: How about COC(=O)N[C@H](C(=O)N1CCC[C@H]1c1ncc(-c2cc(F)c3c(c2)OC(c2cnc(C(C)(C)C)s2)n2c-3cc3cc(-c4cnc([C@@H]5CCCN5C(=O)[C@@H](NC(=O)OC)C(C)C)[nH]4)ccc32)[nH]1)C(C)C (single isomer, unassigned) [Compound 302] ?
Data returned: 7.1

Data request: Record: COC(=O)NC(C(=O)N1CCC[C@H]1c1ncc(-c2ccc3c(c2)cc2n3C(c3cnc(C(C)(C)O)s3)Oc3cc(-c4cnc([C@@H]5CCCN5C(=O)[C@@H](NC(=O)OC)C(C)C)[nH]4)cc(F)c3-2)[nH]1)C1C[C@@H](C)O[C@@H](C)C1 (single isomer, unassigned) [Compound 74]
Data returned: 5.3

Data request: // query: COC(=O)NC(C(=O)N1CCC[C@H]1c1ncc(-c2ccc3c(c2)cc2n3C(c3cnc(C4CCC4)s3)Oc3cc(-c4cnc([C@@H]5CCCN5C(=O)[C@@H](NC(=O)OC)C(C)C)[nH]4)cc(F)c3-2)[nH]1)C1C[C@@H](C)O[C@@H](C)C1 (single isomer, unassigned) [Compound 66]
Data returned: 2.1

Data request: Now the compound COC(=O)N[C@H](C(=O)N1CCC[C@H]1c1ncc(-c2cc(F)c3c(c2)OC(c2cnc(-c4ccc(Cl)cc4)s2)n2c-3cc3cc(-c4cnc([C@@H]5CCCN5C(=O)[C@@H](NC(=O)OC)C(C)C)[nH]4)ccc32)[nH]1)C(C)C (single isomer, unassigned) [Compound 54]
Data returned: 429

----------
Answer each item with its documented IC50.
System: HCV replicon 1B
Experiment: Cell-based HCV Replicon Assay B, replicon 1B
Settings: Hepatitis C virus
Quick note: give the figure in pM, leave out the unit.

Data request: For the molecule shown here, COC(=O)N[C@H](C(=O)N1CCC[C@H]1c1ncc(-c2cc(F)c3c(c2)OC(c2sc(C(C)C)nc2C)n2c-3cc3cc(-c4cnc([C@@H]5CCCN5C(=O)[C@@H](NC(=O)OC)C(C)C)[nH]4)ccc32)[nH]1)C(C)C (single isomer, unassigned) [Compound 515] , give the reported IC50.
Data returned: 2.9

Data request: Now this one: COC(=O)N[C@H](C(=O)N1CCC[C@H]1c1ncc(-c2cc(C)c3c(c2)OC(c2cnc(C4CC4)s2)n2c-3cc3cc(-c4cnc([C@@H]5C[C@H]6C[C@H]6N5C(=O)[C@@H](NC(=O)OC)C(C)(C)F)[nH]4)ccc32)[nH]1)C(C)C (single isomer, unassigned) [Compound 208]
Data returned: 3

Data request: Note, next up: COC(=O)NC(C(=O)N1CCC[C@H]1c1ncc(-c2ccc3c(c2)cc2n3C(c3cnc(C4CCC4)s3)Oc3cc(-c4cnc([C@@H]5CCCN5C(=O)[C@@H](NC(=O)OC)C(C)C)[nH]4)cc(C)c3-2)[nH]1)C1C[C@@H](C)O[C@H](C)C1 (single isomer, unassigned) [Compound 220]
Data returned: 5

Data request: Item: COC(=O)NC(C(=O)N1[C@@H]2C[C@@H]2C[C@H]1c1ncc(-c2ccc3c(c2)c(F)c2n3C(c3cnc(C4CC4)s3)Oc3cc(-c4cnc([C@@H]5CCCN5C(=O)[C@@H](NC(=O)OC)C(C)C)[nH]4)cc(F)c3-2)[nH]1)C1CCOC(C)(C)C1 (single isomer, unassigned) [Compound 112]
Data returned: 3

Data request: // repeat for COC(=O)N[C@H](C(=O)N1CCC[C@H]1c1ncc(-c2cc(F)c3c(c2)OC(c2cnc(-c4ccc(OC(F)(F)F)cc4)s2)n2c-3cc3cc(-c4cnc([C@@H]5CCCN5C(=O)[C@@H](NC(=O)OC)C(C)C)[nH]4)ccc32)[nH]1)C(C)C (single isomer, unassigned) [Compound 77] and report
Data returned: 1

Data request: // repeat for COC(=O)N[C@H](C(=O)N1CCC[C@H]1c1ncc(-c2cc(F)c3c(c2)OC(c2cnc(Nc4ccc(F)cc4)s2)n2c-3cc3cc(-c4cnc([C@@H]5CCCN5C(=O)[C@@H](NC(=O)OC)C(C)C)[nH]4)ccc32)[nH]1)C(C)C (single isomer, unassigned) [Compound 534] and report
Data returned: 3

Data request: Then what about the molecule COC(=O)N[C@H](C(=O)N1CCC[C@H]1c1ncc(-c2cc(F)c3c(c2)OC(c2cnc(-c4cnccn4)s2)n2c-3cc3cc(-c4cnc([C@@H]5CCCN5C(=O)[C@@H](NC(=O)OC)C(C)C)[nH]4)ccc32)[nH]1)C(C)C (mixture of isomers) [Compound 423] ?
Data returned: 7
